Here's what we have: AC50 numbers for Gastric inhibitory polypeptide receptor (Homo sapiens, UniProt P48546).

// below: answered compounds
compound | test target | AC50
CC(C)NCC(O)c1ccc(O)c(O)c1 (centres undefined) [ISOPROTERENOL] | Gastric inhibitory polypeptide receptor (Homo sapiens, UniProt P48546) | > 30 µM
CCCC(CCC)C(=O)O [VALPROIC ACID] | Gastric inhibitory polypeptide receptor (Homo sapiens, UniProt P48546) | > 30 µM
CC(=O)OCC(=O)[C@@]1(O)[C@H](C)C[C@H]2[C@@H]3CCC4=CC(=O)C=C[C@]4(C)[C@@]3(F)[C@@H](O)C[C@@]21C [DEXAMETHASONE ACETATE] | Gastric inhibitory polypeptide receptor (Homo sapiens, UniProt P48546) | > 30 µM
Cc1onc(-c2ccccc2)c1-c1ccc(S(N)(=O)=O)cc1 [VALDECOXIB] | Gastric inhibitory polypeptide receptor (Homo sapiens, UniProt P48546) | > 30 µM
Nc1ccc(S(=O)(=O)Nc2nccs2)cc1 [SULFATHIAZOLE] | Gastric inhibitory polypeptide receptor (Homo sapiens, UniProt P48546) | > 30 µM
O=C(O)c1cn(C2CC2)c2cc(N3CCNCC3)c(F)cc2c1=O [CIPROFLOXACIN] | Gastric inhibitory polypeptide receptor (Homo sapiens, UniProt P48546) | > 30 µM

Count: 4. Required value per item: AC50.
1. CC(C)Cc1ccc(C(C)C(=O)O)cc1 (centres undefined) [IBUPROFEN]
2. CCOC(=O)C1=C(C)NC(C)=C(C(=O)OC)C1c1cccc([N+](=O)[O-])c1 (centres undefined) [NITRENDIPINE]
3. OC1(c2ccc(Cl)cc2)c2ccccc2C2=NCCN21 (centres undefined) [MAZINDOL]
4. [H]/N=C(/N)N/C(=N/[H])NCCc1ccccc1 [PHENFORMIN]

[reply]
1: > 30 µM; 2: > 30 µM; 3: > 30 µM; 4: > 30 µM

Report AC50 for every entry below.
1. CC(C)N(CCC(C(N)=O)(c1ccccc1)c1ccccn1)C(C)C (centres undefined) [DISOPYRAMIDE]
2. Cc1cnc(C(=O)NCCc2ccc(S(=O)(=O)NC(=O)NC3CCCCC3)cc2)cn1 [GLIPIZIDE]
3. CC12CC3CC(C)(C1)CC(N)(C3)C2 [MEMANTINE]
4. Cn1c(=O)cc(N2CCC[C@@H](N)C2)n(Cc2ccccc2C#N)c1=O [ALOGLIPTIN]

[reply]
["> 30 µM", "> 30 µM", "> 30 µM", "> 30 µM"]

The reported measurements were obtained from ChEMBL document CHEMBL5291721.
